Record form. Attribute: composite z-score. Fill in for each entry.
assay: small molecules captured by biotinylated probe aFGF10 – biochemical, small-molecule microarray, fluorescence 635/667, stem cell growth factor project, primary screen (AID 1071); details: higher = more signal;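 further: score merges 667 nm spot intensity and signal to noise from triplicate slides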
One number for each entry.

Compound: C=C[C@H](C)[C@H](O)c1ccc(OCCO)cc1
composite z-score: -1.14
//
Compound: COc1ccc([Si](C)(C)[C@@H]2[C@@H](CCO)O[C@]3(C(=O)N(Cc4ccccc4)c4ccc(N(C=O)c5ccccc5)cc43)[C@H]2C)cc1
composite z-score: 0.465
//
Compound: COCC1C2CC[C@H]3C(OCc4ccc(F)cc4C(F)(F)F)OC[C@]4(C)[C@H]3C2=C(CN4C(=O)OC(C)(C)C)[C@H](C)C1COC (stereo partly drawn)
composite z-score: 0.224

Count: 4. Required value per item: composite z-score.
1. O=C1[C@H]2C=C(Br)[C@H](C[C@@H]2OCCOCCO)[C@@]12CO2
2. CCCC[C@H]1C[C@@H]1[C@@H]1N(P(=O)(c2ccccc2)c2ccccc2)[C@](CO)(c2ccccc2)CC12CC2
3. C=CCNC(=O)[C@H]1[C@@H]2C(=O)O[C@@H](c3ccccc3)[C@@H](c3ccccc3)N2[C@@H](c2ccc(O)cc2)[C@]12C(=O)Nc1ccc(C#Cc3ccc(OC)cc3)cc12
4. Cn1c2c(c3ccccc31)C(=O)C1NC2C=CC1(C)C(=O)OCc1ccccc1 (stereo not drawn)

stdout:
[0.373, 0.106, 0.357, -1.31]

stdin: Quick check: composite z-score of CC1CC/C=C\[C@H]2OC34C=CCN(c5ccc6ccccc6c5)C(=O)[C@H]3N(CCCCCO)C(=O)[C@@H]4C2C(=O)O1 (stereo partly drawn) ?
stdout: -1.01

====

molecular target: NADPH oxidase 5 (Homo sapiens); assay: compounds shifting NOX5 Amplex Red fluorescence – cell-based, HEK293-NOX5, NOX inhibitor project, primary screen (AID 1161); conditions: HEK293-NOX5, ionomycin, 45 min, higher = more signal
Record form. Attribute: z-score. Fill in for each entry.
One number for each entry.

Previously resolved entries follow.
Molecule: CN1C(=O)C2C=CC(C(O)c3ccccc3)N(NC(=O)OC(C)(C)C)C2C1=O (centres undefined)
Observed Result: -1.87
//
Molecule: CCOC(=O)C1=CC[C@@H](c2cccc(Cl)c2)N(S(=O)(=O)c2ccc(C)cc2)[C@H]1c1ccc(C#N)cc1
Observed Result: 0.639
//
Molecule: Cc1ccc(N2C(=O)c3ccccc3[C@](C)(C(=O)NCCN3CCOCC3)[C@@H]2c2ccc(CO)cc2)nc1
Observed Result: 0.286

Let us examine a further case.
stdin: Request body: readout z-score, system NADPH oxidase 5 (Homo sapiens), query "COc1ccc(C(=O)Nc2cccc(CN3C(=O)[C@@]4(O[C@@H](CC(=O)N5Cc6ccccc6C[C@H]5CO)[C@H]([Si](C)(C)c5ccc(OC)cc5)[C@H]4C)c4ccccc43)c2)cc1" . Return the value.
stdout: -0.713

====

biological target: Focal adhesion kinase 1 (Homo sapiens) (UniProt Q05397); assay: PTK2 protein binding on printed compound slides – biochemical, small-molecule microarray, 635/667 nm fluorescence, BSA, DTT, primary screen (AID 1130); conditions: 635 nm fluorescence, higher = more signal;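 further: composite of spot emission at 667 nm and signal to noise over triplicate slides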
Sequence (Q05397 whole entry, looked up): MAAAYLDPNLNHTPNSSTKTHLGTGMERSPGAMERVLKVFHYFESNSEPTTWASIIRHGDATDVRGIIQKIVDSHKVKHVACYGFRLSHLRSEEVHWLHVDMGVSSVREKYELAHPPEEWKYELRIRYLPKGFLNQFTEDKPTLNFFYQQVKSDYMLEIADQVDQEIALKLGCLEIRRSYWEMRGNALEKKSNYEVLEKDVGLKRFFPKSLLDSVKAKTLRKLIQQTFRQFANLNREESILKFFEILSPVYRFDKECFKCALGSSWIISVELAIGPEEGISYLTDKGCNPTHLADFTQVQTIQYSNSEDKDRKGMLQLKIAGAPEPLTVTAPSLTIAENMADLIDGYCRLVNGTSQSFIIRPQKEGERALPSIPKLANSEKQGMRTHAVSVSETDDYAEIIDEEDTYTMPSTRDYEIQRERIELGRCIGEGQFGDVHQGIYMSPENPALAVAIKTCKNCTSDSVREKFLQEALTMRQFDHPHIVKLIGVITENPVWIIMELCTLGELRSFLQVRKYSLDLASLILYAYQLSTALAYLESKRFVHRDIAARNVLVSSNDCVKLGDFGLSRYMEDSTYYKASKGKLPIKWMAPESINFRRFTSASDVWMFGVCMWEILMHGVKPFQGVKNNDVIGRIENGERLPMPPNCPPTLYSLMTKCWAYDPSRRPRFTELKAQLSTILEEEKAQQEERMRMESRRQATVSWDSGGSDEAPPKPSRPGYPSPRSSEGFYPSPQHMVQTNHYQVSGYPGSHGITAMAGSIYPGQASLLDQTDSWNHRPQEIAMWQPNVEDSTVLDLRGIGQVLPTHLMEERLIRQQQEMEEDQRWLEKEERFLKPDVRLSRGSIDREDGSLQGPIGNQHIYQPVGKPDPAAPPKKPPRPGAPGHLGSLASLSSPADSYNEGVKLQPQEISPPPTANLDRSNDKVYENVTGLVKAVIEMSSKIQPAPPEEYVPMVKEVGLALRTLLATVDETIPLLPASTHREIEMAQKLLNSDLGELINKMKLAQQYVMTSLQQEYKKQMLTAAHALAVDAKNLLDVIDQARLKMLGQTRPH
Measurement Label: composite z-score
Answers are plain numbers.

Previously resolved entries follow.
Molecule: CCOC(=O)C[C@H]1[C@H](OC(=O)c2ccccc2-c2ccccc2)[C@@H](NC(=O)c2ccc(-c3ccccc3)cc2)c2cc(OCCCO)ccc2N1C(=O)c1ccccc1
composite z-score: 0.177

Molecule: COCCCNC(=O)[C@@]1(Sc2ccc(C)cc2)CC(=O)N(Cc2ccccc2)[C@@H]1c1ccc(CO)cc1
composite z-score: -0.166

Molecule: O=C1OCC=C[C@H]2OC34C=CCN(c5ccc(Cl)cc5)C(=O)[C@H]3N(CCCO)C(=O)[C@@H]4[C@@H]12 (stereo partly specified)
composite z-score: 0.29

Molecule: C=CCNC(=O)[C@H]1[C@@H]2C(=O)O[C@@H](c3ccccc3)[C@@H](c3ccccc3)N2[C@@H](c2ccc(O)cc2)[C@]12C(=O)Nc1ccc(C#Cc3ccc(OC)cc3)cc12
composite z-score: 0.403

Molecule: C=C(/C(=C/C[C@@H](OC(=O)c1ccncc1)c1ccc(CO)o1)c1cc(C(=O)OC)ccc1OC)C(C)C
composite z-score: 0.317

Let us examine a further case.
stdin: Quick check: composite z-score of "C=CCOC(=O)[C@H]1[C@@H]2C(=O)O[C@@H](c3ccccc3)[C@@H](c3ccccc3)N2[C@@H](c2ccc(OCCOC(=O)[C@@H]3C[C@@H]4C(=O)NCC(=O)N4[C@@H]3c3ccc(O)cc3)cc2)[C@]12C(=O)Nc1ccc(I)cc12" ?
stdout: 2.17

====

assay: plasmodial surface anion channel blockers, osmotic lysis – cell-based, P. falciparum Indochina, OD700, 18 h, primary screen (AID 1157); conditions: P. falciparum Indochina infected erythrocytes, osmotic lysis OD700, 18 h; higher = more signal, called active from +8 up or from −8 down
Calls of active or inactive are those of the source.
Measurement Label: z-score

Count: 5. Required value per item: z-score.
1. O=c1cccc(-c2ccc3ccccc3c2)o1
2. COC(=O)C(CC#Cc1ccc2c(c1)[C@]1(C(=O)N2)[C@H](C(=O)N2CCCCCCC2)[C@H]2C(=O)O[C@H](c3ccccc3)[C@H](c3ccccc3)N2[C@@H]1c1ccccc1OCCO)C(=O)OC
3. C=CC[C@]1(C(=O)NCCN2CCOCC2)N=C(c2ccc(OCCCO)cc2)O[C@H]1c1ccccc1N=[N+]=[N-]
4. CCOC(=O)C[C@H]1[C@H](OC(=O)c2ccc(C(=O)c3ccccc3)cc2)[C@@H](NC(=O)c2ccc3ccccc3n2)c2cc(OCCCO)ccc2N1C(=O)c1ccc2ccccc2n1
5. Cc1ccc(C(C)CC(O)C2C=CC3C(=O)NC(=O)C3N2Nc2ccccn2)o1 (configuration not stated)

stdout:
1: 1.1 (inactive); 2: 0.417 (inactive); 3: 5.98 (inactive); 4: 0.579 (inactive); 5: 0.606 (inactive)

Count: 2. Required value per item: z-score.
1. C/C=C/[C@H](CCn1cc([C@H](O)c2ccccc2)nn1)[Si](C)(C)c1ccc(OC)cc1
2. C[N+](C)(C)CCCCNC(=O)[C@H]1C[C@H]2C(=O)N3CCC[C@H]3C(=O)N2[C@H]1c1ccc(O)cc1

stdout:
1. 0.13 (inactive)
2. 0.0068 (inactive)

====

Record form. Attribute: z-score. Fill in for each entry.
assay: resazurin metabolic signal in HepG2 cells – cell-based, resazurin fluorescence, 24 h, PK04 Diversity Set, profiling panel (AID 1172); settings: HepG2 viability, higher = more signal; further: test concentration not given here

Previously resolved entries follow.
Compound: Cc1ccc(S[C@]2(C(=O)NCc3ccccc3)CC(=O)N(Cc3cc(C(F)(F)F)cc(C(F)(F)F)c3)[C@@H]2c2ccc(CO)cc2)cc1
z-score: -0.417
--
Compound: O=C1O[C@@H](c2ccccc2)[C@@H](c2ccccc2)N2[C@@H](c3ccc(O)cc3)[C@]3(C(=O)Nc4ccc(C#CCCO)cc43)[C@@H](C(=O)N3CCCCCCC3)[C@H]12
z-score: -0.348
--
Compound: COc1ccc(C#Cc2ccc3c(c2)[C@]2(C(=O)N3)[C@H](c3ccc(OCCO)cc3)N3[C@H](c4ccccc4)[C@H](c4ccccc4)OC(=O)[C@H]3[C@@H]2C(=O)Nc2nc3ccccc3s2)cc1
z-score: 0.534
--
Compound: CC1CC/C=C\[C@H]2OC34C=CCN(Cn5nnc6ccccc65)C(=O)[C@H]3N(CCCO)C(=O)[C@@H]4C2C(=O)O1 (stereo partly drawn)
z-score: -0.0236
--
Compound: O=C1[C@H]2C=C(Br)[C@H](C[C@@H]2OCCOCCO)[C@@]12CO2
z-score: -0.0029
--
Compound: COc1ccc([Si](C)(C)[C@@H]2[C@@H](CCO)O[C@]3(C(=O)N(Cc4cccc(N(C=O)c5ccccc5)c4)c4ccccc43)[C@H]2C)cc1
z-score: -2.41
--
Compound: Cc1ccc(S[C@]2(C(=O)NCCN3CCOCC3)CC(=O)N(C3CCCCC3)[C@@H]2c2ccc(CO)cc2)cc1
z-score: 0.375
--
Compound: COc1ccc([Si](C)(C)[C@@H]2[C@@H](CCO)O[C@]3(C(=O)N(Cc4cccc(N5CCCCC5=O)c4)c4ccccc43)[C@H]2C)cc1
z-score: -0.994
--
Compound: COCCOC(=O)N1C(=O)[C@@]2(c3cc(C#CCC(C(=O)OC)C(=O)OC)ccc31)[C@H](c1ccccc1OCCO)N1[C@H](c3ccccc3)[C@H](c3ccccc3)OC(=O)[C@H]1[C@@H]2C(=O)Nc1nc2ccccc2s1
z-score: 0.513
--
Compound: CN(C)CCCCNC(=O)[C@@H]1C[C@@H]2C(=O)N[C@@H](CCCCN)C(=O)N2[C@@H]1c1cccc(OCCO)c1
z-score: 0.0914

Count: 7. Required value per item: z-score.
1. CC1CC/C=C\[C@H]2OC34C=CCN(CCN5CCOCC5)C(=O)[C@H]3N(CCCCCO)C(=O)[C@@H]4C2C(=O)O1 (stereo partly drawn)
2. NC(=O)[C@]1(Cc2ccccc2)N=C(c2ccc(OCCCO)cc2)O[C@@H]1c1ccccc1
3. CC(=O)N1Cc2ccccc2C[C@@]2(N=C(c3ccc(OCCCO)cc3)O[C@H]2c2ccccc2)C1=O
4. C=CCC(OC(C)=O)[C@@H]1[C@@H](N(Cc2ccc(-c3ccccc3)cc2)C(=O)c2ccc(C)cc2)c2cc(OCCCO)ccc2N1C(=O)c1ccc2ccccc2n1 (stereo partly drawn)
5. O=C1OCC=C[C@H]2OC34C=CCN(CCN5CCOCC5)C(=O)[C@H]3N(CCCCCCO)C(=O)[C@@H]4[C@@H]12 (stereo partly drawn)
6. C=CCN1C(=O)[C@@]2(O[C@@H](CCO)[C@H]([Si](C)(C)c3ccc(OC)cc3)[C@H]2C)c2cc(N3C(=O)COc4ccccc43)ccc21
7. CC(C)(C)OC(=O)CC[C@@]1(C(N)=O)N=C(c2ccc(OCCCO)cc2)O[C@@H]1c1ccccc1N=[N+]=[N-]

stdout:
-0.693
-0.3
-1.33
1.53
-0.151
-6.28
0.55

Count: 7. Required value per item: z-score.
1. CC(c1ccccc1)C(O)C1C=CC2C(=O)N(Cc3ccccc3)C(=O)C2N1n1cnnc1 (stereo not drawn)
2. COC(=O)[C@@]1(Cc2ccc(F)cc2)[C@H]2c3cc(C(=O)N(C)C)n(Cc4ccccn4)c3C[C@H]2CN1C(=O)c1ccccc1
3. CCCCCCC#C[Si](O[C@H](c1ccccc1)c1cn([C@H](C)c2ccccc2)nn1)(C(C)C)C(C)C
4. O=P(NCC1(CC2(c3ccccc3)CO2)CC1)(c1ccccc1)c1ccccc1 (stereo not drawn)
5. C=C(C(=O)CC[C@@H](OC(=O)c1cccnc1)c1ccc(OCCO)cc1)C(C)C
6. [N-]=[N+]=Nc1ccccc1[C@H]1OC(c2ccc(OCCCO)cc2)=N[C@@]1(CCS(=O)(=O)c1ccccc1)C(=O)N1CCOCC1
7. CCOC1=C2C(c3ccc(C)cc3)N(S(=O)(=O)c3ccc(C)cc3)CC2n2c(=O)n(-c3ccccc3)c(=O)n2C1 (stereo not drawn)

stdout:
-0.69
1.15
1.94
-0.293
-0.706
-0.512
-0.994

Count: 4. Required value per item: z-score.
1. COCCOC(=O)N1C(=O)[C@@]2(c3ccccc31)[C@H](C(=O)N1CCCCCCC1)[C@H]1C(=O)O[C@H](c3ccccc3)[C@H](c3ccccc3)N1[C@@H]2c1ccccc1OCCO
2. COCCOC(=O)N1C(=O)[C@@]2(c3cc(C#CCC(C(=O)OC)C(=O)OC)ccc31)[C@H](c1ccc(OCCO)cc1)N1[C@H](c3ccccc3)[C@H](c3ccccc3)OC(=O)[C@H]1[C@@H]2C(=O)NC[C@H](O)c1ccccc1
3. CCCCCCCCCCC(O)C1C=CC2C(=O)N(c3ccccc3)C(=O)C2N1Nc1ccc([N+](=O)[O-])cc1 (stereo not drawn)
4. CN(C)CCCN1C(=O)[C@@]2(c3ccc([N+](=O)[O-])cc3)CC(=O)N(C3CCCCC3)[C@@H]2c2ccc(CO)cc21

stdout:
1. -0.415
2. 0.11
3. -0.573
4. 1.57
